Target: Protein farnesyltransferase (Homo sapiens, UniProt P49354+P49356)
Assay: Activity against Farnesyltransferase
Assay type: protein-complex assay
Non-standard residues stand in square brackets, D forms with d. Residues, ends and D or L forms follow the SMILES beside them. *: point of attachment. Cbz = O=C(OCc1ccccc1)*; Bn = c1ccc(C*)cc1
ATTRIBUTE_MEASURED: IC50

Worked cases, answers included:
- MOLECULE: "O=C(CN(Cc1ccc(OCc2ccccc2)cc1)C(=O)[C@H](Cc1c[nH]cn1)NC(=O)OCc1ccccc1)NCCOCc1ccccc1"
  ATTRIBUTE_MEASURED: "IC50"
  ENDPOINT_RESULT: "260 nM"
- MOLECULE: "C[C@@H](NC(=O)[C@H](Cc1c[nH]c2ccccc12)NC(=O)[C@H](COCc1ccccc1)NC(=O)[C@H](Cc1ccc(OCc2ccccc2)cc1)NC(=O)[C@@H](Cc1c[nH]cn1)NC(=O)OCc1ccccc1)C(N)=O (Cbz-[dH]Y(Bn)S(Bn)W[dA]-NH2)"
  ATTRIBUTE_MEASURED: "IC50"
  ENDPOINT_RESULT: "20 nM"
- MOLECULE: "O=C(N[C@H](Cc1cnc[nH]1)C(=O)N[C@@H](Cc1ccc(OCc2ccccc2)cc1)C(=O)NCCOCc1ccccc1)OCc1ccccc1"
  ATTRIBUTE_MEASURED: "IC50"
  ENDPOINT_RESULT: "20 nM"
- MOLECULE: "CC(C)=CCC/C(C)=C/CC/C(C)=C/CONC(=O)CP(=O)(O)OCOC(=O)C(C)(C)C"
  ATTRIBUTE_MEASURED: "IC50"
  ENDPOINT_RESULT: "2610 nM"
- MOLECULE: "CC(C)=CCC/C(C)=C/CC/C(C)=C/CONC(=O)COP(=O)(O)O"
  ATTRIBUTE_MEASURED: "IC50"
  ENDPOINT_RESULT: "75 nM"
- MOLECULE: "O=C(CN(Cc1ccc(OCc2ccccc2)cc1)C(=O)[C@H](Cc1c[nH]cn1)NC(=O)OCc1ccccc1)NCCc1ccccc1"
  ATTRIBUTE_MEASURED: "IC50"
  ENDPOINT_RESULT: "170 nM"
- MOLECULE: "COC1=C(N)C(=O)c2nc(-c3nc(C(=O)O)c(C)c(-c4cccc(OC)c4O)c3N)ccc2C1=O"
  ATTRIBUTE_MEASURED: "IC50"
  ENDPOINT_RESULT: "21000 nM"
- MOLECULE: "CN1C(=O)[C@]23CC4=CC=C[C@H](O)[C@H]4N2C(=O)[C@@]1(CO)SS3"
  ATTRIBUTE_MEASURED: "IC50"
  ENDPOINT_RESULT: "1100 nM"
- MOLECULE: "CC(C)=CCC/C(C)=C/CC/C(C)=C/CNC(=O)C(COP(=O)(O)O)C(=O)O (stereo not given)"
  ATTRIBUTE_MEASURED: "IC50"
  ENDPOINT_RESULT: "83 nM"

Consider the additional molecule presented here.
In one line, give reported IC50 of the entry `CN(C(=O)[C@@H](Cc1cnc[nH]1)NC(=O)OCc1ccccc1)[C@@H](Cc1ccc(OCc2ccccc2)cc1)C(=O)NCCOCc1ccccc1` .
400 nM
